Tested on: NCI-H1650
testSummary: Antiproliferative activity against human NCI-H1650 cells assessed as decrease in cell viability after 48 hrs by MTT assay
Type: functional, cell-based
experimentalParameters: NCI-H1650, 48 h
Some compounds, each annotated with its measured pIC50.
Here pIC50 is given on a logarithmic scale as minus log10 of the concentration in mol/L.

Check out these entries, answers already filled in.
## Input For the compound `CCCSc1nc(Nc2cc(OC)c(OC)c(OC)c2)c2ncc(=O)n(Cc3ccccc3)c2n1` , give its measured pIC50 value.
## Output 4.43

## Input Quick one: give measured pIC50 for `CCCSc1nc(N2CCN(C)CC2)c2ncc(=O)n(Cc3ccco3)c2n1`
## Output 4.26

Shift focus to the following entry.
## Input Quickly give me recorded pIC50 for `CCCSc1nc(Nc2ccccc2OC)c2ncc(=O)n(Cc3ccccc3)c2n1`
## Output 4.29

----------
Test system: MKN-45
testSummary: Antiproliferative activity against human MKN45 cells assessed as decrease in cell viability after 48 hrs by MTT assay
Assay type: functional, cell-based
experimentalParameters: MKN-45, 48 h
IC50: recorded values
Supply the numeric figure in µM, leaving out any unit text.

## Input Respond only with IC50 recorded for `CCCSc1nc(Nc2ccccc2OC)c2ncc(=O)n(Cc3ccccc3)c2n1`
## Output 14.7

## Input Provide only the value of recorded IC50 for `CCCNc1nc(SCCC)nc2c1ncc(=O)n2Cc1ccccc1`
## Output 39.2

Consider the record given below.
## Input Indicate its recorded IC50; the molecule in question is `CCCSc1nc(N2CCN(C)CC2)c2ncc(=O)n(CC(C)C)c2n1`
## Output 16.8

----------
Recorded pIC50 for the following compounds
System: NCI-H1650
testSummary: Antiproliferative activity against human NCI-H1650 cells assessed as decrease in cell viability after 48 hrs by MTT assay
Format: functional, cell-based
experimentalParameters: NCI-H1650, 48 h
pIC50: −log10 of the molar value.

## Input Report value: pIC50, system: NCI-H1650, compound: `CCCSc1nc(NC2CC2)c2ncc(=O)n(Cc3ccccc3)c2n1`
## Output < 4.19

## Input Provide pIC50, recorded with NCI-H1650, of `CCCSc1nc(N2CCN(C)CC2)c2ncc(=O)n(CC(C)C)c2n1`
## Output 4.34

## Input Lab note: record pIC50 of `CCCSc1nc(Nc2ccccc2)c2ncc(=O)n(Cc3ccccc3)c2n1` tested on NCI-H1650.
## Output < 4.19

For the next question, use this compound.
## Input GET pIC50 where system = NCI-H1650 and item = `CCCSc1nc(N2CCN(C)CC2)c2ncc(=O)n(CC3CCCCC3)c2n1`
## Output 4.29

----------
Test system: MKN-45
testSummary: Antiproliferative activity against human MKN45 cells assessed as decrease in cell viability after 48 hrs by MTT assay
Format: functional, cell-based
experimentalParameters: MKN-45, 48 h
Let's look at some compounds and their measured pIC50.
Entry type: numeric. Quantity: pIC50, the -log10 of concentration in molar units.

Reference set, count: 9
## Input Specify measured pIC50 for `CCCSc1nc(N2CCN(C)CC2)c2ncc(=O)n(CC3CCCCC3)c2n1` .
## Output 4.75

## Input Name the recorded pIC50 of the item `CCCSc1nc(NC2CC2)c2ncc(=O)n(Cc3ccccc3)c2n1` in your answer.
## Output 4.63

## Input For the compound `CCCSc1nc(Nc2ccccc2)c2ncc(=O)n(Cc3ccccc3)c2n1` , give its measured pIC50 value.
## Output 4.41

## Input Specify measured pIC50 for `CCCSc1nc(N2CCN(C)CC2)c2ncc(=O)n(CCCc3ccccc3)c2n1` .
## Output 5.00

## Input Give pIC50 for `CCCSc1nc(N2CCN(C)CC2)c2ncc(=O)n(Cc3cccs3)c2n1`
## Output 4.95

## Input # return recorded pIC50 for entry `CCCSc1nc(N2CCN(C)CC2)c2ncc(=O)n(Cc3ccco3)c2n1`
## Output 4.94

## Input Check the records and state pIC50 for `CCCSc1nc(NCC2CCCCC2)c2ncc(=O)n(Cc3ccccc3)c2n1`
## Output 4.68

## Input In one line, give reported pIC50 of the entry `CCCSc1nc(N2CCN(C)CC2)c2ncc(=O)n(Cc3ccccc3)c2n1` .
## Output 5.36

## Input Identify measured pIC50 associated with `CCCSc1nc(N2CCN(Cc3ccccc3)CC2)c2ncc(=O)n(Cc3ccccc3)c2n1`
## Output 4.81

More entries:
## Input Could you please provide reported pIC50 for `CCCSc1nc(Nc2cc(OC)c(OC)c(OC)c2)c2ncc(=O)n(Cc3ccccc3)c2n1` ? Thanks!
## Output 4.85
